All figures here come from the supplement of paper PMC8728848.

# MEASURED ON: GlcNAc(b1-3)Gal(b1-4)Glc
# METHOD SUMMARY: glycan array binding signal (z-score within array); higher = stronger binding
# MEASUREMENT SETUP: glycan notation: IUPAC condensed, linker removed
The full list was thinned out, with the strongest signals kept by preference.
Catalogue of glycan array binding signal (z-score) values
Lab note: record just the number, no unit beside it.

- BINDER: "BDCA-2 (Homo sapiens), Q8WTT0 (protein) MVPEEEPQDREKGLWWFQLKVWSMAVVSILLLSVCFTVSSVVPHNFMYSKTVKRLSKLREYQQYHPSLTCVMEGKDIEDWSCCPTPWTSFQSSCYFISTGMQSWTKSQKNCSVMGADLVVINTREEQDFIIQNLKRNSSYFLGLSDPGGRRHWQWVDQTPYNENVTFWHSGEPNNLDERCAIINFRSSEEWGWNDIHCHVPQKSICKMKKIYI"
  glycan array binding signal (z-score): 0.173

response.value for LTL (Lotus tetragonolobus), P19664 (protein) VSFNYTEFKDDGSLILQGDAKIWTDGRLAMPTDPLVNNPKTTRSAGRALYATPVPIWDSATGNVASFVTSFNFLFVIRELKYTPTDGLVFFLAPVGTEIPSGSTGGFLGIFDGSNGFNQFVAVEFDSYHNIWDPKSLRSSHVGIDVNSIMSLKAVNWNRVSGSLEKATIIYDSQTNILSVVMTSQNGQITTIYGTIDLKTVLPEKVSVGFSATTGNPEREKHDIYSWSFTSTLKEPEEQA (field: glycan array binding signal (z-score)) = -0.196

response.value for Dectin-1 (Mus musculus), Q6QLQ4 (protein) GHNSGRNPEEKDNFLSRNKENHKPTESSLDEKVAPSKASQTTGGFSQPCLPNWIMHGKSCYLFSFSGNSWYGSKRHCSQLGAHLLKIDNSKEFEFIESQTSSHRINAFWIGLSRNQSEGPWFWEDGSAFFPNSFQVRNTAPQESLLHNCVWIHGSEVYNQICNTSSYSICEKEL (field: glycan array binding signal (z-score)) = -0.029
